From: patent US20240294651A1

Measured % Max Inhibition, cAMP HTRF assay, CXCR4 BacMam HEK-293 cells accompanies every entry in the list below.
Biological target: human CXCR4 (cell-expressed) (human, UniProt P61073 1-352)
Sequence (P61073 whole entry): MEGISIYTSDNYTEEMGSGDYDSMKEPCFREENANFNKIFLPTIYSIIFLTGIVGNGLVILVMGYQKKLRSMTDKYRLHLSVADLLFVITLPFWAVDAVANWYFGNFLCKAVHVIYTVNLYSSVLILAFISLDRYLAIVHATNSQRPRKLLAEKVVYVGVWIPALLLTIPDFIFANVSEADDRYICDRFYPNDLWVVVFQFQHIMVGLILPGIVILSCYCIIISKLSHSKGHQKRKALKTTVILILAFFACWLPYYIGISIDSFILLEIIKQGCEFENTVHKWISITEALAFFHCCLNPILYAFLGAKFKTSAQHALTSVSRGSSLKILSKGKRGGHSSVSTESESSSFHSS
Test: cell-based or functional assay
READOUT LABEL: % Max Inhibition, cAMP HTRF assay, CXCR4 BacMam HEK-293 cells (%)

>  <BINDER>
CL-82658 (antibody, human IgG4 S228P, kappa, V domains shown, Tested in human IgG4-PE format; also called CL-82658 (IgG4-PE format)) VH: QVQLVESGGGVVQPGRSLRLSCAASGFSFSSYGMHWVRQAPGKGLEWVAVISYDGSNKYYADSVKGRFTISRDNSKNTLYLQMNSLRGEDTAVYYCSKGSLTPRRGYYYSYGMDVWGQGTTVTVSS VL: DIQMTQSPSSLSASVGDRVTITCRASQGIRNDLSWYQQKPGKAPKRLIYAASSLQSGVPSRFSGSGSGTEFTLTISSLQPEDFATYYCLQHNGYPFTFGPGTKVDIKR

>  <TEST VALUE>
98

$$$$
>  <BINDER>
CL-148729 (antibody, human IgG4 S228P, lambda, V domains shown, Tested in human IgG4-PE format) VH: AVQLVESGGGLVQPGGSLKLSCAASGFTFSGSTMHWVRQASGRGLEWVGRIRSKADSYATAYSASVKGRFTISRDDSKKMAYLQMNSLKTEDMAVYYCTRSGDYWGQGTLVTVSS VL: QSVLTQPPSVSAAPGQKVTISCSGSSSNIGKNYVAWYQQLPGTAPKLLIYDTNKRPSGIPDRFSGSKSGTSATLDITGLQTGDEADYYCGTWDISLSVGWLFGGGTKVTVLG

>  <TEST VALUE>
114

$$$$
>  <BINDER>
CL-82523 (antibody, human IgG4 S228P, kappa, V domains shown, Tested in human IgG4-PE format) VH: EVQLVESGGGLVQPGGSLRLSCAASGFTFSNYAMSWVRQAPRKGLEWVSVISGSGGRTNYAGSVKGRFSITRDNSKNTLYLQMNSLRAEDTAVYYCVKGQLERRYYYYYGMDVWGQGITVTVSS VL: DIQMTQSPSSLSASVGDRVTITCRASQGIRNDLGWYQQKPGKAPKRLIYAASSLQSGVPSRFSGSGSGTEFTLTISSLQPEDFATYYCLQHNSYPLTFGGGTKVEIKR

>  <TEST VALUE>
87

$$$$
>  <BINDER>
CL-148712 (antibody, human IgG4 S228P, kappa, V domains shown) VH: EVQLVESGGDLVQPGGSLRLSCAASGFTFYSYAMNWVRQAPGKGLKWVSGISGSGDITYYADSVKGRFTISRDNSKNTLYLQMHSLRAEDTAVYYCAKGQLERRYYKYYGMDVWGQGTTVTVSS VL: DIQMTQSPSSLSASVGDRVTITCRANQGIRNDLGWYQQKPGKAPKRLIYGASSLKSGVPSRFSGSGSGTEFTLTISSLQPEDFATYYCLQQNSYPLTFGGGTKVEIKR

>  <TEST VALUE>
105

$$$$
>  <BINDER>
CL-82458 (antibody, human IgG4 S228P, kappa, V domains shown, Tested in human IgG4-PE format; also called CL-82458 (IgG4-PE format)) VH: EVQLVESGGDLVQPGGSLRLSCAASGFTFYSYAMNWVRQAPGKGLKWVSGISGSGDITYYADSVKGRFTISRDNSKNTLYLQMHSLRPEDTAIYYCAKGQLERRYYKYYGMDVWGQGTTVTVSS VL: DIQMTQSPSSLSASVGDRVTITCRANQGIRNDLGWYQQKPGKAPKRLIYGASSLKSGVPSRFSGSGSGTEFTLTISSLQPEDFATYYCLQQNSYPLTFGGGTKVEIKR

>  <TEST VALUE>
88

$$$$
>  <BINDER>
CL-82556 (antibody, human IgG4 S228P, kappa, V domains shown, Tested in human IgG4-PE format) VH: QVQLVESGGGVVQPGRSLRLSCAASGFTFYSYGMHWVRQAPGKGLEWVAVIWYGGTNKYYADSVKGRFTISRDNSKNTLYLQMNSLTAEDTAVYYCARGQLERRRGGLNIWGQGTMVTVSS VL: DIQMTQSPSSLSASVGDRVTITCRASQGVRDDLGWYQQKPGKAPKRLIYAASNLQSGVPSRFSGSGSGTEFTLTIGSLQPEDFATYYCLQHNSYPFTFGPGTKVDIKR

>  <TEST VALUE>
94

$$$$
>  <BINDER>
CL-82551 (antibody, human IgG4 S228P, kappa, V domains shown, Tested in human IgG4-PE format) VH: QVQLVQSGAEVKKPGASVKVSCKASGYTFTSYDINWVRQATGQGLEWMGWMNPNSGNTGYAQKFQGRVTMTRNTSISTAYMELSSLRSEDTAVYYCARGRGYYGSGSHYRGYYYYGLDVWGQGTTVTVSS VL: DIQMTQSPSTLSASVGDRVTITCRASQSISSWLAWYQQKPGKAPKVLIYKASSLKSGVPSRFSGSGSGTEFTLTVSSLQPDDFATYYCQQYNSYSWTFGQGTKVEIKR

>  <TEST VALUE>
92

$$$$
>  <BINDER>
CL-82495 (antibody, human IgG4 S228P, kappa, V domains shown, Tested in human IgG4-PE format) VH: QVQLVESGGGVVQPGRSLRLSCEASGFTLSSYGMHWVRQAPGKGLEWVAVIWNDGSNKYSADSVKGRFTISRDNSKNTLYLQMNRLRAEDTAVYYCARGGGYYGSGSHYRGYYYYGMDVWGQGTTVTVSS VL: DIQMTQSPSSLSASVGDRVTITCRASQGIRNDLGWYQQKPGKAPKRLIYAASSLQSGVPSRFSGSGSGTEFTLTISSLQPEDFATYYCLQHNSYPWTFGQGTKVEIKR

>  <TEST VALUE>
96

$$$$
